Data provenance: PubChem BioAssay (NCATS)

assay: Cell Proliferation Assay against the TMD8 Cell Line (AID 651645); conditions: TMD8 DLBCL cell line proliferation/viability; at 46.1 µM (top of the series);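 note: cells exposed to compound for 48 h before reading; 100% = DMSO and 0% = 9.2 µM bortezomib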
Rule: viability (% of control) below 3% gives yes (1), anything at or above gives no (0).

Record excerpt, results attached:
{"test_smiles": "CC(C)C[C@H](NC(=O)[C@H](CCc1ccccc1)NC(=O)CN1CCOCC1)C(=O)N[C@@H](Cc1ccccc1)C(=O)N[C@@H](CC(C)C)C(=O)[C@@]1(C)CO1", "class_assignment": "no (0)"}
{"test_smiles": "CCN(CC)CCn1c(=O)c(Cc2ccc(OC)cc2)nc2ccccc21", "class_assignment": "no (0)"}
{"test_smiles": "COc1cc2c(Nc3ccc(Br)cc3F)ncnc2cc1OCC1CCN(C)CC1", "class_assignment": "no (0)"}
{"test_smiles": "COc1cc2nc(N3CCCN(C)CC3)nc(NC3CCN(Cc4ccccc4)CC3)c2cc1OC", "class_assignment": "no (0)"}

# ---- query compound ----
Q: Lab note: viability (% of control) threshold 3%. Does this compound come in strictly under it? COc1cc([C@@H]2c3cc4c(cc3[C@H](O)[C@H]3COC(=O)[C@H]23)OCO4)cc(OC)c1OC
Result: yes (1)
